Sourced from patent US8642609B2

Reported values of EC50 for individual entries
# Measured target: ΔF508-CFTR (Homo sapiens, UniProt P13569, DEL508-508)
# Sequence (P13569 with tags, fused parts or gaps DEL508-508): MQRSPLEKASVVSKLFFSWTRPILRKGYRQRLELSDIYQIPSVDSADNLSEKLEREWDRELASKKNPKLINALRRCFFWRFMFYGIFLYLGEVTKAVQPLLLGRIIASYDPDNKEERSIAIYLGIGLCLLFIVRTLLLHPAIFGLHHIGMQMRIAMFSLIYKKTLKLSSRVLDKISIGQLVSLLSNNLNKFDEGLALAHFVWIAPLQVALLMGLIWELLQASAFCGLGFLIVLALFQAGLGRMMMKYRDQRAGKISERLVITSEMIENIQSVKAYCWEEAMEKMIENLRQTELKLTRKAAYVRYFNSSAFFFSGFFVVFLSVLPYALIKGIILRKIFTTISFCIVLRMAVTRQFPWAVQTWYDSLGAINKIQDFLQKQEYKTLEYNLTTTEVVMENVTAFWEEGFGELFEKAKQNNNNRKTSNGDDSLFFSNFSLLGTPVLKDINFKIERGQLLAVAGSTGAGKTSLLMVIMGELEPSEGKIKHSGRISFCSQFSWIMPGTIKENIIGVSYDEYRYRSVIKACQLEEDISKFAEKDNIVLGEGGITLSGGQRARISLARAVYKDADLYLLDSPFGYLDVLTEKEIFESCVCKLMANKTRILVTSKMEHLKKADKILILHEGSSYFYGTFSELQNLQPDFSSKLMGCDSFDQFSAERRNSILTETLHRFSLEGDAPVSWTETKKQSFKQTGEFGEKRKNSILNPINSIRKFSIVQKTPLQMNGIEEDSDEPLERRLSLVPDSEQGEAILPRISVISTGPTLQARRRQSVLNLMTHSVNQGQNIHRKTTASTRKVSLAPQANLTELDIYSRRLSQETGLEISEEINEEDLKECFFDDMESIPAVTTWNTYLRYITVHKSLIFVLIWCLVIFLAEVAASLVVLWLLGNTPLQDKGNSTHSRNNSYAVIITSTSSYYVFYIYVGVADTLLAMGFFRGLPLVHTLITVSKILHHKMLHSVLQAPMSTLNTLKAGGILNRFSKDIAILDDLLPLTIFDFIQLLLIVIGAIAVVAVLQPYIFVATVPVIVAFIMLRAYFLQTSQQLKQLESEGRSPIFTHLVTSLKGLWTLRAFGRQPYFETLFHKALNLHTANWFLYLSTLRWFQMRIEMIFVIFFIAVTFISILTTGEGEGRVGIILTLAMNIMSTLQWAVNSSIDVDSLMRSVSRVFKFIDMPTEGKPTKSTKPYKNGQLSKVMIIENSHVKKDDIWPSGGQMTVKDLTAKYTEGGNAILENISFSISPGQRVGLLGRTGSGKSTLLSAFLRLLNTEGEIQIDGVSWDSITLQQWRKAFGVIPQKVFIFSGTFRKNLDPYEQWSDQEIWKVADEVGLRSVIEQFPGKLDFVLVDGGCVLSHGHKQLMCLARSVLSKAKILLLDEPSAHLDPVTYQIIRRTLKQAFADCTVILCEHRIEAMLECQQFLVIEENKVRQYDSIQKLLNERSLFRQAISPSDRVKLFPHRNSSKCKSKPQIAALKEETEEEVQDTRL
# Test: Membrane potential optical assay (FRET/VIPR), identification of correction compounds

Before answering, review these 5 worked examples.
| Molecule | EC50 |
| --- | --- |
| CC(NC1CCNCC1)c1nc2ccccc2c(=O)n1C (centres unmarked) | 25 to 60 µM |
| COc1ccc(S(=O)(=O)N2CCN(C(C)c3ncc(Br)c(OC4CCCC4)n3)CC2)cc1 (centres unmarked) | < 10 µM |
| Cc1cccc(CC(=O)N2CCN(C(C)c3nc4cc(Cl)ccc4c(=O)n3C)CC2)c1 (centres unmarked) | 10 to 25 µM |
| COc1ccc(S(=O)(=O)N2CCN(C(C)c3nc4cc(Cl)ccc4c(=O)n3C)CC2)cc1OC (centres unmarked) | 10 to 25 µM |
| CC(c1nc2cccc(Cl)c2c(=O)n1C)N1CCN(S(=O)(=O)c2ccc(Br)cc2)CC1 (centres unmarked) | 10 to 25 µM |

Query block: I would be grateful if you could share the reported EC50 for CCCOc1nc(C(C)N2CCN(S(=O)(=O)c3ccc(Br)cc3)CC2)nc2ccccc12 (centres unmarked) .
Result block: < 10 µM

Query block: Returns the measured EC50 for the input molecule. Input: COc1ccc(S(=O)(=O)N2CCN(Cc3nc4ccc(Cl)cc4c(=O)n3C)CC2)cc1
Result block: 10 to 25 µM

Query block: # lookup: EC50 of CC(=O)N1CCN(C(C)c2nc3ccc(Cl)cc3c(=O)n2C)CC1 (centres unmarked)
Result block: 25 to 60 µM

Query block: Value lookup for EC50; key = COc1ccc(S(=O)(=O)N2CCN(C(C)c3nc4ccc(N)cc4c(=O)n3C)CC2)cc1 (centres unmarked)
Result block: 10 to 25 µM

Query block: Which measured EC50 value corresponds to CC(c1nc2ccc(Cl)cc2c(=O)n1C)N1CCN(C(=O)Nc2ccccc2)CC1 (centres unmarked) ?
Result block: 25 to 60 µM

Query block: Give its EC50 value. Item: CC(c1nc(N2CCOCC2)c2ccccc2n1)N1CCN(S(=O)(=O)c2ccc(Br)cc2)CC1 (centres unmarked)
Result block: 10 to 25 µM

Query block: I'd like to know its EC50. The molecule in question is Cc1c(S(=O)(=O)N2CCN(C(C)c3nc4ccccc4c(=O)n3C)CC2)sc2ccc(Cl)cc12 (centres unmarked)
Result block: 25 to 60 µM

Query block: What value of measured EC50 is listed for COc1ccc(S(=O)(=O)N2CCN(C(C)c3nc(N4CCCC(C)C4)c4ccccc4n3)CC2)cc1 (centres unmarked) ?
Result block: < 10 µM

Query block: Query (molecule): CC(c1nc2ccccc2c(=O)n1CCO)N1CCN(S(=O)(=O)c2ccc(Br)cc2)CC1 (centres unmarked) ; field requested: EC50
Result block: 10 to 25 µM

Query block: For the molecule shown here, CC(c1nc2cc(Cl)ccc2c(=O)n1C)N1CCN(S(=O)(=O)c2ccccc2)CC1 (centres unmarked) , give the reported EC50.
Result block: 10 to 25 µM

Query block: What does the data say about its EC50? Entry: CCCn1c(C(C)OCC)nc2ccccc2c1=O (centres unmarked)
Result block: 25 to 60 µM

Query block: Recorded EC50 of CC(NCCN)c1nc2ccccc2c(=O)n1C (centres unmarked) , please.
Result block: 25 to 60 µM
